# Test system: J774
# measurementDescription: Cytotoxicity against mouse J774 cells assessed as reduction in cell viability at 1 ug/ml after 24 hrs by resazurin-based colorimetric assay
# testParameters: j774, 24 h
A collection of molecules and their measured Activity
measurementName: Activity (%)

> print(dat)
                                   molecule  measuredon  testresult
1  O=C1CN(CCc2ccccc2CCl)c2ccc([N+](=O)[O-])cc2N1        J774         4.7
2  CN1C(=O)CN(CCc2ccccc2CCl)c2ccc([N+](=O)[O-])cc21        J774           0
3  CC1CS(=O)(=O)CCN1/N=C/c1ccc([N+](=O)[O-])o1 (stereo not given) [NIFURTIMOX]        J774           0
4   O=C1CN(CCCCCCl)c2ccc([N+](=O)[O-])cc2N1        J774           0
5    O=C1CN(CCCCCl)c2ccc([N+](=O)[O-])cc2N1        J774           0
